Source of measurements: patent US9371319B2

ASSAYED SYSTEM: full length MPS1 (Homo sapiens)
Sequence (P33981 1-857): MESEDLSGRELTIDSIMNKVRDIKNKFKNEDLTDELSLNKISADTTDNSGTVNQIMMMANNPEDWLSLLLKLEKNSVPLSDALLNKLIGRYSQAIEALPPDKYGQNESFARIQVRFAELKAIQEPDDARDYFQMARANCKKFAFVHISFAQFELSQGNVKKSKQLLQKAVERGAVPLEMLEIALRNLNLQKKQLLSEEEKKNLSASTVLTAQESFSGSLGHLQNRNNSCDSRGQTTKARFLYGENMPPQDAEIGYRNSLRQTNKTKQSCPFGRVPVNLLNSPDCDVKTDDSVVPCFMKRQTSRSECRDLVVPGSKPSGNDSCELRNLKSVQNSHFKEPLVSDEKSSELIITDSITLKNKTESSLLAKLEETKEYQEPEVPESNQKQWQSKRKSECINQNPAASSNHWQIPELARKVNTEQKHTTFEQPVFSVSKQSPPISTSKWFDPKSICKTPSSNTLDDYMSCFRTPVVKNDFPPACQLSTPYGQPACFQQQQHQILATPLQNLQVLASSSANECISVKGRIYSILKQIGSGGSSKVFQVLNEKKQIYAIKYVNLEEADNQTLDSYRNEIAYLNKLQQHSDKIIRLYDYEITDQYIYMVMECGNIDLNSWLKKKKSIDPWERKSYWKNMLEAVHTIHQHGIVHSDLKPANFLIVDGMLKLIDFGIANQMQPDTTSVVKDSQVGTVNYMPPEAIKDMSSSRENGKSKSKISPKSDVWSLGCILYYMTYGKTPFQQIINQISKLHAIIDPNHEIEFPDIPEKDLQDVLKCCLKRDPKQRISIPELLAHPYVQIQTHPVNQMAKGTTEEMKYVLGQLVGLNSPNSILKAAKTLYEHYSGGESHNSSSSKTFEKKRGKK
pIC50: −log10 of the molar value.

{"SAMPLE SMILES": "COc1cc(CN)ccc1Nc1cc2[nH]c(-c3cnn(C)c3)cc2cn1", "ASSAYED SYSTEM": "full length MPS1 (Homo sapiens)", "pIC50": 7.37}
{"SAMPLE SMILES": "CC(C)OC(=O)n1c(-c2cnn(C)c2)cc2cnc(Nc3cc(-c4cnn(C)c4)ccc3Cl)cc21", "ASSAYED SYSTEM": "full length MPS1 (Homo sapiens)", "pIC50": 6.54}
{"SAMPLE SMILES": "Cn1cc(-c2[nH]c3cc(Nc4ccccc4Cl)ncc3c2Cl)cn1", "ASSAYED SYSTEM": "full length MPS1 (Homo sapiens)", "pIC50": 6.38}
{"SAMPLE SMILES": "Cn1cc(-c2cc3cnc(Nc4ccc(-c5ccn(C)n5)cc4Cl)cc3[nH]2)cn1", "ASSAYED SYSTEM": "full length MPS1 (Homo sapiens)", "pIC50": 7.28}
{"SAMPLE SMILES": "CCOC(=O)n1c(-c2cnn(C)c2)cc2cnc(Nc3ccc(-c4cnc(C)n4C)cc3Cl)cc21", "ASSAYED SYSTEM": "full length MPS1 (Homo sapiens)", "pIC50": 8.70}
{"SAMPLE SMILES": "CN(C)C(=O)c1ccc(Nc2cc3c(cn2)cc(-c2cnn(C)c2)n3CC2CCCC2)c(Cl)c1", "ASSAYED SYSTEM": "full length MPS1 (Homo sapiens)", "pIC50": 7.33}
